B1: library; numbered along this chain (parent)
chain: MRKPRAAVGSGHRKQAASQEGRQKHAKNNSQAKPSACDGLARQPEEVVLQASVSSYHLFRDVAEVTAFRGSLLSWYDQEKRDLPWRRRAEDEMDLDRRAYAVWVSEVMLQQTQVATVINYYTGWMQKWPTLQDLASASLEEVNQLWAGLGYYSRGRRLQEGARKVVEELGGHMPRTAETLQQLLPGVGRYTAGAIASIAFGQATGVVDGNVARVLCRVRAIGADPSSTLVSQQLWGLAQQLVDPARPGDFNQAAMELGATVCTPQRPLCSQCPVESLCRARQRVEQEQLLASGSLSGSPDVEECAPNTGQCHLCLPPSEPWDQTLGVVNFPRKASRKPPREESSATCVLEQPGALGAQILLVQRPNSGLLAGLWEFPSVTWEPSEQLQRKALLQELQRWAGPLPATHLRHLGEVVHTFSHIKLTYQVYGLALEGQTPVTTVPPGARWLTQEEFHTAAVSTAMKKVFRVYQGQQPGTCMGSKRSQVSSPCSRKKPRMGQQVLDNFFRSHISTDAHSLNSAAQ

Variants of: B1
Test: 8OG:A repair function score (normalized; synonymous = 0, nonsense = -1) (normalized log-likelihood score); higher = more repair activity (WT-like);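 further: cells sorted at 72 h after reporter transfection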
Details: with 8OG:A DNA repair reporter (GFP) in HEK-293 MUTYH KO cells
# 8OG:A repair function score annotations
Please respond with just the number, no unit label.

E413Y = -0.109
A461W = -1.22
Q323T = 0.0271
V104Q = -1.17
E285A = 0.00663

Entry under test: A371D . Its 8OG:A repair function score was -0.824

Entry under test: G236N . Its 8OG:A repair function score was 0.18

Entry under test: Y428A . Its 8OG:A repair function score was -1.05

Entry under test: R42W . Its 8OG:A repair function score was 0.0271

Entry under test: F59T . Its 8OG:A repair function score was -0.579

Entry under test: S276M . Its 8OG:A repair function score was -0.0454
